This listing pairs compounds with measured IC50.
Target: Human recombinant liver glycogen phosphorylase a (hrl GPa) (Homo sapiens, UniProt P06737)
Sequence (P06737 whole entry): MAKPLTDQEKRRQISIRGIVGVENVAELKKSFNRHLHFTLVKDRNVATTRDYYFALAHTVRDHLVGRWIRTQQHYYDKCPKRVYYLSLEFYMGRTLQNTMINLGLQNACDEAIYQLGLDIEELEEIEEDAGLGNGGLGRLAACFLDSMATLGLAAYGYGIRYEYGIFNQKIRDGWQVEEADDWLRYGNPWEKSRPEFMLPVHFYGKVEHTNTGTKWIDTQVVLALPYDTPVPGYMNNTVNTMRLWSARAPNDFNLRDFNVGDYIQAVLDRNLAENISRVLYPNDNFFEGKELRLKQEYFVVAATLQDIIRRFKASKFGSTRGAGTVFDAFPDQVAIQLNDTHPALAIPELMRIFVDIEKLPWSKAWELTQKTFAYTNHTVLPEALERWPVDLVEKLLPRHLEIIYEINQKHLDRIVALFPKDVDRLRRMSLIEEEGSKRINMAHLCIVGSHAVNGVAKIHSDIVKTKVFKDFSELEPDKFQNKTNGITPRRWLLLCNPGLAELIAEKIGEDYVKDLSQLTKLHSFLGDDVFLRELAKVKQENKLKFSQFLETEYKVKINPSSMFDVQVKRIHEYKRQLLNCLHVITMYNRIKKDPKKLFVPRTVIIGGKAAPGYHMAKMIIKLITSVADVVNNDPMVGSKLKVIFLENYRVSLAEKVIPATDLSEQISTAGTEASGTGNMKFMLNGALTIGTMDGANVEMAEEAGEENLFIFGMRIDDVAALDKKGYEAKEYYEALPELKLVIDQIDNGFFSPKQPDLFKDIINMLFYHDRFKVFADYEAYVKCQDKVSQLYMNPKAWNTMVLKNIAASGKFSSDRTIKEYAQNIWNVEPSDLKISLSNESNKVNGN
Assay: glycogen phosphorylase inhibition, multienzyme coupled assay
Type: biochemical
Conditions: hrl GPa 20 nM; 6 hours at 30° C.; read-out: Activity (μM) IC50

compound="CN(C(=O)[C@@H](N)CO)[C@@H]1c2ccccc2C[C@H]1NC(=O)c1cc2sc(Cl)c(Cl)c2[nH]1.Cl [Example 27, hydrochloride]" result="0.11 µM"

With those in mind, consider the next compound.
Query block: Notebook entry, Human recombinant liver glycogen phosphorylase a (hrl GPa) (Homo sapiens, UniProt P06737) assay: IC50 of CC(=O)N(C)[C@@H]1c2ccccc2C[C@H]1NC(=O)c1cc2sc(Cl)c(Cl)c2[nH]1 [Reference Eg 1] = ?
Result block: ~0.4 µM

====

Target: Human recombinant liver glycogen phosphorylase a (hrl GPa) (Homo sapiens, UniProt P06737)
Test: glycogen phosphorylase inhibition, multienzyme coupled assay
Format: biochemical
Conditions: text b160; read-out: IC50
parameter: pIC50
The read-out pIC50 is expressed as -log10 of concentration in moles per litre.

Query block: # lookup: pIC50 of COCC(=O)N(C)[C@@H]1c2ccccc2C[C@H]1NC(=O)c1cc2cc(Cl)sc2[nH]1 [Example 1]
Result block: 6.58

====

Assay: thermodynamic solubility
Assay type: physicochemical
Conditions: 0.1 M phosphate buffer, pH 7.4, aqueous buffer, thermodynamic from solid, 0.1 M phosphate at pH7.4 for 24 hours
parameter: solubility at 24 h
Kindly format the answer as number then unit.

molecule="CC(=O)N(C)[C@@H]1c2ccccc2C[C@H]1NC(=O)c1cc2sc(Cl)c(Cl)c2[nH]1 [Reference Eg 1]" parameter="solubility at 24 h" result="1.4 µM"

Query block: Could you tell me which solubility at 24 h is on file for "CN(C(=O)[C@@H](N)CO)[C@@H]1c2ccccc2C[C@H]1NC(=O)c1cc2sc(Cl)c(Cl)c2[nH]1.Cl" ?
Result block: 50 µM
